Target: Cholinesterase (Homo sapiens)
Sequence (P06276 whole entry): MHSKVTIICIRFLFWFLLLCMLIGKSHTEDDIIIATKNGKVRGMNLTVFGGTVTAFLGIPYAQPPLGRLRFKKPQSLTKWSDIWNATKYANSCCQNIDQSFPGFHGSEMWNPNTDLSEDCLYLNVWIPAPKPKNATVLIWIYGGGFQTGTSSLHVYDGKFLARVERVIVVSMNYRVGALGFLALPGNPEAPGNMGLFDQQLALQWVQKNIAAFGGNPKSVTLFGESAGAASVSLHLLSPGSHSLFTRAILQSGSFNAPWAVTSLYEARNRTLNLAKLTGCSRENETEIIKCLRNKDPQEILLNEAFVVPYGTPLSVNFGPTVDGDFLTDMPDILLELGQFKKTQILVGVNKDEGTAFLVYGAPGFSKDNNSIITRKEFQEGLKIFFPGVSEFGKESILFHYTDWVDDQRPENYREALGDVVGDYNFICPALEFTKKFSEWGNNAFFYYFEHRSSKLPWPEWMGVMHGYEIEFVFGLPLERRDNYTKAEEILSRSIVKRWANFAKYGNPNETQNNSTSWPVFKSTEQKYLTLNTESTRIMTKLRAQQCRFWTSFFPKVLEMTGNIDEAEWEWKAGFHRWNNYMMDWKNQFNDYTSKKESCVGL
Experiment: Inhibition of BuChE in human plasma using butyrylthiocholine iodide substrate by Ellman's protocol based assay
MEASURED METRIC: IC50 (µM)

[
  {
    "RECORD SMILES": "CCOC(=O)C1=C(C)NC(C)=C(C(=O)OCC)C1c1ccc(OCCCCCN2CCCC2)cc1",
    "UNIT LABEL": "µM",
    "EXPERIMENTAL RESULT": 6.07
  },
  {
    "RECORD SMILES": "CCOC(=O)C1=C(C)NC(C)=C(C(=O)OCC)C1c1ccc(OCCCCCN2CCCCC2)cc1",
    "UNIT LABEL": "µM",
    "EXPERIMENTAL RESULT": 7.83
  },
  {
    "RECORD SMILES": "CCOC(=O)C1=C(C)NC(C)=C(C(=O)OCC)C1c1ccc(OCCCCN2CCCC2)cc1",
    "UNIT LABEL": "µM",
    "EXPERIMENTAL RESULT": 7.22
  }
]
